From: patent US9670150B2

# assayed system: FPR2 (Homo sapiens, UniProt P25090)
# Construct: expressed in transfected cells; host or cells: CHO-Ga16 cells stably expressing FPR2
# Sequence (P25090 whole entry): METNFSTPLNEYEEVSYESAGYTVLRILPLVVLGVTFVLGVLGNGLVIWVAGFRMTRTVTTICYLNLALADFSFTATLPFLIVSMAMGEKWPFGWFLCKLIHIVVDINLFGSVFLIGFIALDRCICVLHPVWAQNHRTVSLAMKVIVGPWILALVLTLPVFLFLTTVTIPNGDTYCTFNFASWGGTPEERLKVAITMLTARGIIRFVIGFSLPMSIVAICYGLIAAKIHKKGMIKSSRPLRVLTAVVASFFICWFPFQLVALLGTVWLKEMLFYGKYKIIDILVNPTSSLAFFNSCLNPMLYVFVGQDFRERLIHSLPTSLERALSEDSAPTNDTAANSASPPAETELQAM
# measurement description: compound-induced calcium activity on FLIPR Tetra in CHO-Ga16 cells stably expressing FPR2
# Type: cell-based
Hi there, I'd appreciate the recorded pEC50 for every entry that follows.
Answers are plain numbers, as −log10 of the molar value.

CCOP(=O)(O)CNC(=O)[C@H](CC(C)C)NC(=O)Nc1ccc(Br)cc1 [Compound 15]    9.02
CCC[C@H](NC(=O)Nc1ccc(Br)cc1)C(=O)NCP(=O)(O)OCC [Compound 17]    9.00

The compound CCOP(=O)(O)CNC(=O)[C@H](Cc1ccccc1)NC(=O)Nc1ccc(Br)cc1 [Compound 18] showed pEC50 equal to 7.80

====

# assayed system: FPR2 (Homo sapiens)
# Construct: expressed in transfected cells; host or cells: CHO-Ga16 cells stably expressing FPR2
# measurement description: compound-induced calcium activity on FLIPR Tetra in CHO-Ga16 cells stably expressing FPR2
# Format: cell-based
# assay context: efficacy value given as a fraction; CHO-Ga16 cells stably expressing FPR2; read-out: FPR2 Ga16-CHO (0.% eff) efficacy
Hi there, I'd appreciate the recorded Emax for every entry that follows.
One number for each entry, in %.

CCOP(=O)(O)CNC(=O)[C@H](CC(C)C)NC(=O)Nc1ccc(S(C)(=O)=O)cc1 [Compound 21]    99
CC(C)C[C@H](NC(=O)Nc1ccc(C(F)(F)F)cc1)C(=O)NCP(=O)(O)O [Compound 23]    102
CCC[C@H](NC(=O)Nc1ccc(Br)cc1)C(=O)NCP(=O)(O)OCC [Compound 17]    94
CCOP(=O)(CNC(=O)[C@H](CC(C)C)NC(=O)Nc1ccc(C(F)(F)F)cc1)OCC [Compound 11]    100
CCOP(=O)(CCNC(=O)[C@H](CC(C)C)NC(=O)Nc1ccc(Br)cc1)OCC [Compound 8]    100

Provide Emax for all items below, preserving their order.
1. CCOP(=O)(CNC(=O)[C@@H](NC(=O)Nc1ccc(Br)cc1)[C@@H](C)CC)OCC [Compound 5]
2. CCOP(=O)(O)CNC(=O)[C@H](CC(C)C)NC(=O)Nc1ccc(C(F)(F)F)cc1 [Compound 20]
3. CCOP(=O)(CNC(=O)[C@H](Cc1ccccc1)NC(=O)Nc1ccc(Br)cc1)OCC [Compound 7]
4. CCOP(=O)(CNC(=O)[C@H](CC(C)C)NC(=O)Nc1ccc(SC)cc1)OCC [Compound 14]

[A]
1. 100
2. 95
3. 98
4. 90

====

# assayed system: FPR2 (Homo sapiens, UniProt P25090)
# Construct: expressed in transfected cells; host or cells: CHO-Ga16 cells stably expressing FPR2
# measurement description: compound-induced calcium activity on FLIPR Tetra in CHO-Ga16 cells stably expressing FPR2
# Type: cell-based
# assay context: efficacy value given as a fraction; CHO-Ga16 cells stably expressing FPR2; read-out: FPR2 Ga16-CHO (0.% eff) efficacy
Hi there, I'd appreciate the recorded Emax for every entry that follows.
One number for each entry, in %.

Provide Emax for all items below, preserving their order.
1. CCOP(=O)(O)CNC(=O)[C@H](CC(C)C)NC(=O)Nc1ccc(Br)cc1
2. CCOP(=O)(O)CNC(=O)[C@@H](NC(=O)Nc1ccc(Br)cc1)[C@@H](C)CC
3. CC(C)C[C@H](NC(=O)Nc1ccc(C(F)(F)F)cc1)C(=O)NCc1nnn[nH]1
4. CC(C)C[C@H](NC(=O)Nc1ccc(Br)cc1)C(=O)NCc1nnn[nH]1

[A]
1. 88
2. 88
3. 91
4. 81

Provide Emax for all items below, preserving their order.
1. CCOP(=O)(CNC(=O)[C@H](CC(C)C)NC(=O)Nc1ccc(S(C)(=O)=O)cc1)OCC
2. CCC[C@H](NC(=O)Nc1ccc(Br)cc1)C(=O)NCP(=O)(O)O
3. CCC[C@H](NC(=O)Nc1ccc(Br)cc1)C(=O)NCP(=O)(OC(C)C)OC(C)C
4. CCCC(NC(=O)Nc1ccc(Br)cc1)C(=O)NCP(=O)(O)OC(C)C (centres unmarked)

[A]
1: 112; 2: 94; 3: 94; 4: 89
